- Test system: clinical isolates containing an I50L substitution (and their baseline isolates)
- Method: PhenoSense phenotypic susceptibility of clinical isolates from ATV-treated patients who developed I50L
- Format: cell-based, HIV-1
- Settings: Subject 169, Week 102
// values below are reported Susceptibility, Fold Change in EC50 relative to reference strain
Dear colleague, please return just the value in Fold Change, with no unit written.

The following compounds have reported results that may help.
[
  {
    "Molecular String": "CC(C)(C)NC(=O)[C@@H]1CN(Cc2cccnc2)CCN1C[C@@H](O)C[C@@H](Cc1ccccc1)C(=O)N[C@H]1c2ccccc2C[C@H]1O",
    "Study System": "clinical isolates containing an I50L substitution (and their baseline isolates)",
    "Unit Tag": "Fold Change",
    "Assay Result": 0.4
  },
  {
    "Molecular String": "CC(C)(C)NC(=O)[C@@H]1C[C@@H]2CCCC[C@@H]2CN1C[C@@H](O)[C@H](Cc1ccccc1)NC(=O)[C@H](CC(N)=O)NC(=O)c1ccc2ccccc2n1",
    "Study System": "clinical isolates containing an I50L substitution (and their baseline isolates)",
    "Unit Tag": "Fold Change",
    "Assay Result": 0.4
  },
  {
    "Molecular String": "Cc1c(O)cccc1C(=O)N[C@@H](CSc1ccccc1)[C@H](O)CN1C[C@H]2CCCC[C@H]2C[C@H]1C(=O)NC(C)(C)C",
    "Study System": "clinical isolates containing an I50L substitution (and their baseline isolates)",
    "Unit Tag": "Fold Change",
    "Assay Result": 0.5
  },
  {
    "Molecular String": "CC(C)c1nc(CN(C)C(=O)N[C@H](C(=O)N[C@@H](Cc2ccccc2)C[C@H](O)[C@H](Cc2ccccc2)NC(=O)OCc2cncs2)C(C)C)cs1",
    "Study System": "clinical isolates containing an I50L substitution (and their baseline isolates)",
    "Unit Tag": "Fold Change",
    "Assay Result": 0.3
  },
  {
    "Molecular String": "CC(C)CN(C[C@@H](O)[C@H](Cc1ccccc1)NC(=O)O[C@H]1CCOC1)S(=O)(=O)c1ccc(N)cc1",
    "Study System": "clinical isolates containing an I50L substitution (and their baseline isolates)",
    "Unit Tag": "Fold Change",
    "Assay Result": 0.6
  }
]

We next turn to a different compound, shown below.
Challenge: Return Susceptibility, Fold Change in EC50 relative to reference strain for the following compound: "COC(=O)N[C@H](C(=O)N[C@@H](Cc1ccccc1)[C@@H](O)CN(Cc1ccc(-c2ccccn2)cc1)NC(=O)[C@@H](NC(=O)OC)C(C)(C)C)C(C)(C)C"
Response given: 9.2

----------
- System: recombinant HIV-1 viruses (NL4-3, RF, LAI) in MT-2 cells
- Method: MT-2 cell susceptibility assay of recombinant viruses
- Format: cell-based
- Settings: Human immunodeficiency virus 1, NL43, MT2, read-out: ATV phenotype (value before parenthesis, EC50), NL4-3 Control (second group, site-directed mutants)
Assay Metric: EC50 (nM)
# output: bare number, implied unit nM

Challenge: Quickly give me recorded EC50 for "COC(=O)N[C@H](C(=O)N[C@@H](Cc1ccccc1)[C@@H](O)CN(Cc1ccc(-c2ccccn2)cc1)NC(=O)[C@@H](NC(=O)OC)C(C)(C)C)C(C)(C)C"
Response given: 1.5

These entries and their values trace back to patent US20050148523A1.
